target: T1, recombinant cynomolgus PDL1 (cynomolgus monkey, UniProt G7PSE7 19-238); test: SPR
T1 construct: also called cynom; PDL1
T1 sequence (G7PSE7 entry or part of it): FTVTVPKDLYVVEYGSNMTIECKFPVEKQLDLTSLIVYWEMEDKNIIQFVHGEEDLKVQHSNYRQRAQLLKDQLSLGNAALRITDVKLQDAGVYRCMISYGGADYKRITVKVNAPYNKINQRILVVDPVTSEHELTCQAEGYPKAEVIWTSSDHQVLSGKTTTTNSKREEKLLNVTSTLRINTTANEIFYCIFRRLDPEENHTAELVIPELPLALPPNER
MEASUREMENT_TYPE: kon (M⁻¹ s⁻¹)
Give just the number in M⁻¹ s⁻¹; leave the unit off.

Form field: reported kon of PRO2230 (scFv, anti-PDL1 scFv; also called 37-20-B03-sc09.1) scFv: DIQMTQSPASLSASVGDRVTITCQASQSIGTYLAWYQQKPGKPPKLLIYRAFILASGVPSRFSGSGSGTDFTLTISSLQPEDFATYYCQSNFYSDSTTIGPNAFGTGTKVTVLGGGGGSGGGGSGGGGSGGGGSEVQLVESGGGLVQPGGSLRLSCAASGFSFNSDYWIYWVRQAPGKGLEWIASIYGGSSGNTQYASWAQGRFTISRDNSKNTVYLQMNSLRAEDTAVYFCARGYVDYGGATDLWGQGTLVTVSS
7e+06
